# System: UO-31 renal
# test name: NCI-60 one-dose screen, 48 h (100 = growth as untreated, 0 = no growth, -100 = all killed)
# applied conditions: 10 µM
Compounds without any hit were thinned out: in the full panel of roughly 83,000, 20% have a hit.
measured endpoint: growth (%)
Your answer is read as %, so omit the unit and give the number.

Solved cases below.
Sample O=C(O)c1ccccc1C(=O)c1cccc2c(F)cccc12 ; growth observed: 87.1

Reported growth ( COc1ccccc1CNCCCN1C(=O)c2ccc3c4c(ccc(c24)C1=O)C(=O)N(CCCNCCNCCCN)C3=O ) = 77.3

Lab note: COc1ccc(-c2nc(-c3nc4ccc(OC)cc4[nH]3)c3ccccn23)cc1 gave growth of 25.5

// growth lookup, compound = Cc1ccc(C(=O)O)c(N)c1C , result: 57.6

***
Noted for C[C@H](NC(=O)[C@@H]1CSSC[C@@H](NC(=O)Cc2nc3ccccc3cc2O)C(=O)NCC(=O)N1C)c1ccccc1 : its growth reads 92

Reported growth of CCc1ccc(-c2nnc(COc3ccc(-c4nc5ccccc5[nH]4)cc3OC)o2)cc1 : 56.8

Value of growth reported for the compound C#CCNCCN1C(=O)c2ccc3c4c(ccc(c24)C1=O)C(=O)N(CCNCC#C)C3=O is 29.5

Value of growth reported for the compound CCOc1nc(-c2ccccc2)cc2c(O)c(C(=O)NCCCO)[nH]c(=O)c12 is 79.6

The compound identified as NCCNc1ccc2cc(-c3nc4ccccc4[nH]3)c(=O)oc2c1 registered its growth at 81.7
